- Subject Of Test: ZFP SBS#1407 (synthetic)
- Sequence (chain, as listed by the source): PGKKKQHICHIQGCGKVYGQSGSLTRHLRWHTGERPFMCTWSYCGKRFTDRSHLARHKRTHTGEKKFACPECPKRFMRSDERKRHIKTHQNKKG
- Test Details: EMSA
- Details: tags: MBP fusion
Measured Quantity: Kd (nM)
Expressed in nM, but write only the number.

Asked: Give a short answer stating reported Kd for GCGGGCGCA (dsDNA) DNA 1: GCGGGCGCA DNA 2: TGCGCCCGC .
Given back: 0.585
